Tested on: HCV replicon in Huh7 cells
Test: HCV replicon cell-based assay
Parameters: species or system HCV strain 1B
Conditions: Hepatitis C virus, Huh-7; HCV replicon, Huh7 cells; read-out: EC50 range
pEC50: −log10 of the molar value.
Recorded pEC50 values for a group of compounds are listed next.

Worked examples, 2 compounds total:
INSERT INTO assay_data (compound, value) VALUES
  ('C=C[C@@H]1C[C@]1(NC(=O)[C@@H]1C[C@@H](Oc2nccc3cc(OC)ccc23)CN1C(=O)[C@@H](NC(=O)O[C@H]1CCOC1)C(C)(C)C)C(=O)NS(=O)(=O)C1CC1 [Compound 19]', '> 7.00'),
  ('C=CC1C[C@]1(NC(=O)[C@@H]1C[C@@H](Oc2nnc(-n3ccnc3)c3ccccc23)CN1C(=O)[C@@H](NC(=O)OC(C)(C)C)C(C)(C)C)C(=O)NS(=O)(=O)C1CC1 (stereo partly drawn) [Compound 196]', '5.00 to 6.00');

Continue with the next compound.
Input: Fill: pEC50 (HCV replicon in Huh7 cells) for this compound C=C[C@@H]1C[C@]1(NC(=O)[C@@H]1C[C@@H](Oc2nccc3cc(OC)ccc23)CN1C(=O)[C@@H](NC(=O)OC(C)(C)C)C1CCCC1)C(=O)NS(=O)(=O)C1CC1 [Compound 149]
Output: > 7.00

###

Tested on: HCV replicon in Huh7 cells
Experiment: HCV replicon cell-based assay
Design: species or system HCV strain 1B
Settings: Hepatitis C virus, Huh-7; HCV replicon, Huh7 cells; read-out: EC50 range
pEC50: −log10 of the molar value.
Recorded pEC50 values for a group of compounds are listed next.

Worked examples, 4 compounds total:
INSERT INTO measurements (compound, quantity_kind, value) VALUES
  ('C=C[C@@H]1CC1(NC(=O)[C@@H]1CC(Oc2nccc3cc(OC)ccc23)CN1C(=O)[C@@H](NC(=O)CO[C@H]1C[C@@H](C)CC[C@@H]1C(C)C)C(C)(C)C)C(=O)NS(=O)(=O)C1CC1 (some centres unmarked)', 'pEC50', '5.00 to 6.00'),
  ('C=CCCCCC[C@H](NC(=O)OC(C)(C)C)C(=O)N1C[C@H](Oc2ccnc3cc(OC)ccc23)C[C@H]1C(=O)N[C@]1(C(=O)NS(=O)(=O)C2CC2)C[C@H]1C=C', 'pEC50', '6.00 to 7.00'),
  ('C=CC1C[C@]1(NC(=O)[C@@H]1C[C@@H](Oc2nnc(-n3ccnc3)c3ccccc23)CN1C(=O)[C@@H](N)C(C)(C)C)C(=O)NS(=O)(=O)C1CC1 (some centres unmarked)', 'pEC50', '4.00 to 5.00'),
  ('C=CC1CC1(NC(=O)[C@@H]1C[C@@H](Oc2cc(C(F)(F)F)nc3ccc(F)cc23)CN1C(=O)[C@@H](NC(=O)OC(C)(C)C)C(C)(C)C)C(=O)NS(=O)(=O)C1CC1 (some centres unmarked)', 'pEC50', '6.00 to 7.00');

Input: Fill: pEC50 (HCV replicon in Huh7 cells) for this compound C=CC1C[C@]1(NC(=O)[C@@H]1C[C@@H](Oc2cc(C(F)(F)F)nc3c(OC(F)(F)F)cccc23)CN1C(=O)[C@@H](NC(=O)OC(C)(C)C)C(C)(C)C)C(=O)NS(=O)(=O)C1CC1 (some centres unmarked)
Output: 6.00 to 7.00

###

Biological target: human pancreatic chymotrypsin (Homo sapiens, UniProt P17538)
Sequence (P17538 19-263): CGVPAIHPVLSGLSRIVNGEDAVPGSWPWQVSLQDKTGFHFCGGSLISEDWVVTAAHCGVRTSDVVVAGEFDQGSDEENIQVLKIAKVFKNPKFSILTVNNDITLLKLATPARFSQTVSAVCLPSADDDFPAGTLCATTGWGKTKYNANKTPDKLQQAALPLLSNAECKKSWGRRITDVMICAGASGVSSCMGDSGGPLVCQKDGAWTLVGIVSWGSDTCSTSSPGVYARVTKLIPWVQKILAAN
pIC50: −log10 of the molar value.
quantity_kind: pIC50

Input: Fill: pIC50 (human pancreatic chymotrypsin (Homo sapiens, UniProt P17538)) for this compound C=C[C@@H]1C[C@]1(NC(=O)[C@@H]1C[C@@H](Oc2nc(C3CC3)cc3ccccc23)CN1C(=O)[C@@H](NC(=O)OC(C)(C)C)C(C)(C)C)C(=O)NS(=O)(=O)C1CC1
Output: < 3.70

###

Recorded pEC50 values for a group of compounds are listed next.
System: HCV replicon in Huh7 cells
Assay: HCV replicon cell-based assay
Design: species or system HCV strain 1B
Conditions: Hepatitis C virus, Huh-7; HCV replicon, Huh7 cells; read-out: EC50 range
pEC50: −log10 of the molar value.

Worked examples, 3 compounds total:
INSERT INTO assay_data (compound, quantity_kind, value) VALUES
  ('C=C[C@@H]1C[C@]1(NC(=O)[C@@H]1C[C@@H](Oc2nccc3cc(OC)ccc23)CN1C(=O)[C@@H](NC(=O)N(C)[C@H](C(=O)OC)C(C)C)C(C)(C)C)C(=O)NS(=O)(=O)C1CC1', 'pEC50', '6.00 to 7.00'),
  ('C=CC1C[C@]1(NC(=O)[C@@H]1C[C@@H](Oc2nccc3cc(C(C)C)ccc23)CN1C(=O)[C@@H](NC(=O)OC(C)(C)C)C(C)(C)C)C(=O)NS(=O)(=O)C1CC1 (stereo partly shown)', 'pEC50', '6.00 to 7.00'),
  ('C=C[C@@H]1C[C@]1(NC(=O)[C@@H]1CC(Oc2nccc3cc(OC)ccc23)CN1C(=O)[C@@H](NC(=O)C(CC)CC)C(C)(C)C)C(=O)NS(=O)(=O)C1CC1 (stereo partly shown)', 'pEC50', '6.00 to 7.00');

Input: Tell me measured pEC50 for C=C[C@@H]1C[C@]1(NC(=O)[C@@H]1C[C@@H](Oc2ccnc(-c3ccccc3)c2)CN1C(=O)[C@@H](NC(=O)OC1CCCC1)C(C)(C)C)C(=O)NS(=O)(=O)C1CC1 please.
Output: 6.00 to 7.00

Input: Tell me measured pEC50 for C=C[C@@H]1C[C@]1(NC(=O)[C@@H]1C[C@@H](Oc2nccc3cc(OC)ccc23)CN1C(=O)[C@H](CC(=O)OC)NC(=O)OC(C)(C)C)C(=O)NS(=O)(=O)C1CC1 please.
Output: > 7.00

Input: Tell me measured pEC50 for C=C[C@@H]1C[C@]1(NC(=O)[C@@H]1C[C@@H](Oc2nccc3c2ccc2occc23)CN1C(=O)[C@@H](NC(=O)OC(C)(C)C)C(C)(C)C)C(=O)NS(=O)(=O)C1CC1 please.
Output: > 7.00

###

Molecular target: HCV NS3/4A protease complex, BMS strain (UniProt P27958, C1454S/C1711G, species not given/STRAIN_BMS)
Test: Recombinant HCV NS3/4A protease complex FRET peptide assay (BMS strain)
Assay type: biochemical, HCV genotype 1a
Conditions: NS3/4A BMS strain; read-out: IC50 range
pIC50: −log10 of the molar value.
quantity_kind: pIC50

INSERT INTO measurements (compound, quantity_kind, value) VALUES
  ('C=CC1C[C@]1(NC(=O)[C@@H]1C[C@@H](Oc2nccc3occc23)CN1C(=O)[C@@H](NC(=O)OC(C)(C)C)C(C)(C)C)C(=O)NS(=O)(=O)C1CC1 (some centres unmarked) [Compound 233]', 'pIC50', '6.00 to 7.00'),
  ('C=C[C@@H]1C[C@]1(NC(=O)[C@@H]1C[C@@H](Oc2nccc3c(OC(F)(F)F)cccc23)CN1C(=O)[C@@H](NC(=O)OC(C)(C)C)C(C)(C)C)C(=O)NS(=O)(=O)C1CC1 [Compound 269]', 'pIC50', '> 7.00'),
  ('C=CC1C[C@]1(NC(=O)[C@@H]1C[C@@H](Oc2nccc3cc(C(C)(C)C)ccc23)CN1C(=O)[C@@H](NC(=O)OC(C)(C)C)C(C)(C)C)C(=O)NS(=O)(=O)C1CC1 (some centres unmarked) [Compound 191]', 'pIC50', '> 7.00'),
  ('C=C[C@@H]1C[C@]1(NC(=O)[C@@H]1C[C@@H](Oc2ccnc(-c3nccs3)c2)CN1C(=O)[C@@H](NC(=O)OC1CCCC1)C(C)(C)C)C(=O)NS(=O)(=O)C1CC1 [Compound 431]', 'pIC50', '> 7.00');

Input: Tell me measured pIC50 for CC[C@@H]1C[C@]1(NC(=O)[C@@H]1C[C@@H](Oc2nccc3c(C(F)(F)F)cccc23)CN1C(=O)[C@@H](NC(=O)OC(C)(C)C)C(C)(C)C)C(=O)NS(=O)(=O)C1CC1 [Compound 295] please.
Output: 6.00 to 7.00

###

Tested on: HCV replicon in Huh7 cells
Assay: HCV replicon cell-based assay
Set-up: species or system HCV strain 1B
Conditions: Hepatitis C virus, Huh-7; HCV replicon, Huh7 cells; read-out: EC50 range
pEC50: −log10 of the molar value.
quantity_kind: pEC50

Worked examples, 4 compounds total:
INSERT INTO results (compound, quantity_kind, value) VALUES
  ('C=CC1C[C@]1(NC(=O)[C@@H]1C[C@@H](COc2cncc(-c3ccsc3)c2)CN1C(=O)[C@@H](NC(=O)OC)C(C)(C)C)C(=O)NS(=O)(=O)C1CC1 (some centres unmarked)', 'pEC50', '4.00 to 5.00'),
  ('C=CC1C[C@]1(NC(=O)[C@@H]1C[C@@H](Oc2nccc3cc(CC)ccc23)CN1C(=O)[C@@H](NC(=O)OC(C)(C)C)C(C)(C)C)C(=O)NS(=O)(=O)C1CC1 (some centres unmarked)', 'pEC50', '6.00 to 7.00'),
  ('C=C[C@@H]1C[C@]1(NC(=O)[C@@H]1C[C@@H](Oc2nccc3cc(OC)ccc23)CN1C(=O)C(NC(=O)OC(C)(C)C)C(C)c1ccccc1)C(=O)NS(=O)(=O)C1CC1 (single isomer, unassigned)', 'pEC50', '6.00 to 7.00'),
  ('C=C[C@@H]1C[C@]1(NC(=O)[C@@H]1C[C@@H](Nc2nc(-c3ccccc3)cs2)CN1C(=O)[C@@H](NC(=O)OC(C)(C)C)C(C)(C)C)C(=O)NS(=O)(=O)C1CC1', 'pEC50', '5.00 to 6.00');

Continue with the next compound.
Input: Tell me measured pEC50 for CC[C@@H]1C[C@]1(NC(=O)[C@@H]1C[C@@H](Oc2nccc3c(C(F)(F)F)cccc23)CN1C(=O)[C@@H](NC(=O)OC(C)(C)C)C(C)(C)C)C(=O)NS(=O)(=O)C1CC1 please.
Output: 5.00 to 6.00

Where do these numbers come from? They come from patent US7915291B2.
